Provenance of the data: the nanobody polyreactivity screen of Harvey et al. (2022)

experiment: yeast display, Sf9 membrane polyspecificity reagent, FACS + sequencing; frameworks hold sequencing errors
measured metric: polyreactivity (PSR sort gate)

Below, each entry is followed by its recorded polyreactivity (PSR sort gate) result.
QVQLVESGGGLVQAGGSLRLSCAASGFIFDGYAMGWYSQAPGKERELVAAIDSGGDRTYYADSVKGRFTISRDNAKNTVYLQMNSLKPEDTAVYYCAADSSDPTGYDYWGQGTQVTVSS | low polyreactivity
QVQLVESGGGLVQAGGSLRLSCAASGGIFYFNAMGWYRQAPGKERELVASITWSGGNTYYADSVKGRFTISRDNAKNTVYLQMNSLKPEDTAVYYCAADTQEYRPTYDYWGQGTQVTVSS | low polyreactivity
QVQLVESGGGLVQAGGSLRLSCAASGRISGYNMGWSRHAPGKERELVAAISNGGSTNYADSVKGRFTISRANAKNTVYLQMNSLKPEDTAVYYCAKLGPRSYSAYRYDYWGQGTQVTVSS | high polyreactivity
QVQLVESGGGLVQAGGSLRLSCAASGNTFYPYAMGWYRQAPGKERELVAAISFSSGSTYYADSVKGRFTISRDNAKNTVYLQMNSLKPEETAVYYCAAEANGNFAWWEYYYWGQGTQVTVSS | high polyreactivity

The following sequences each have a reported value; give each one's polyreactivity (PSR sort gate).
1. QVQLVESGGGLVQAGGSLRLSCAASGSTFSYNAMGWYRQAPGKERELVAGITGRGGSTYYADSEKGRFTISRDNAKNTVYLQMYSLKPEDTAVYYCAADARSYGYPDDFWGQGTQVTVSS
2. QVQLVESGGGLVQAGGSLRLICAASGSTLVVNAMGWYRQAPGKERELVAAITSGGSTNYADSVKGRFTISRDNAKNTVYLQMNSLKPEDTAVYYCNAERGRSFWWAYDYWGQGTQVTVSS
3. QVQLVESGGGLVQAGGSLRLSCAASGFIFSYAMGWYRQAPGKERELVAAISKSGGRTYYADSVKGRFTISRDNAKNTVYLQMNSLIPEDTAVYYCAVRDLHLSNARYNYWGQGSQVTVSS
4. QVQLVESGGGLVQAGGSLRLSCAASGITFYDNAMGWDRQAPGKEREFVAAISKSGGNTYYADSVKGRFTISRDNAKNTVYLQMNSLKPEDTAVYYCDARTQAFSRKGYGYWGQGTQVTVSS
5. QVQLVESGGGLVQAGGSLRLSCAASGSIFVRYAMGWYRQAPGKERELVAAISSGGRTYYADSVKGRFTISRDNAKNTVYLQMNSLKPEDTAVYYCNAVKRVPSLGPYDYWGQGTQVTVSS
6. QVQHVESGGGLVQAGGSLRLSCAASGSTFTGYTMGWYRQAPGKERELVASIRTYYADSVKGRFTISRDNAKNTVYLQMNSLKPEDTAVYYCAADFPSATGGYDYWGQGTQVTVSS
7. QVQLESGGGLVQAGGRLRLSCAASGSIIDQYVMGWYRQAPGKERELVAAISRGGRTYYADSVKGRFTISRDNAKNTVYLQMNSLKPVDSSVYYCAARSDVRGFDYWGQGTQVTVSS
8. QVQLVESGGGLVQAGGTLRLSCAASGRIFSYNAMGWYRQAPGKERELVAAITWRGGNTYYADSVKGRFTISRDNALNTVYLQMNSLQPEDTAVYYCAAQRGRWAPMYFWGQGTQVTVSS

1: high polyreactivity; 2: low polyreactivity; 3: high polyreactivity; 4: high polyreactivity; 5: high polyreactivity; 6: low polyreactivity; 7: low polyreactivity; 8: high polyreactivity
